// read-out Ki, gathered for 72 kDa type IV collagenase (Homo sapiens) from published studies
reported.endpoint: Ki (nM)

compound="COc1ccc(S(=O)(=O)C(CC(=O)NO)Cc2ccccc2)cc1 (stereo not given)" system_name="72 kDa type IV collagenase (Homo sapiens)" reported_endpoint=Ki observed_value=20

[1] C[C@H](C(=O)NO)N1CCNc2cc(Oc3ccccc3)ccc2S1(=O)=O
[2] COc1ccc([C@]2(C)CCN([C@H](C)C(=O)NO)C2=O)cc1
Problem: Quick check, higher Ki between 1 and 2 ? Please respond with the label that marks your chosen entry.
Result: 1

====

pKi: −log10 of the molar value.
// read-out pKi, gathered for 72 kDa type IV collagenase (Homo sapiens, UniProt P08253) from published studies
reported.endpoint: pKi

molecule=COc1ccc2c(c1)NCCN(CC(=O)NO)S2(=O)=O system_name="72 kDa type IV collagenase (Homo sapiens, UniProt P08253)" observed_value=5.82
molecule="CNC(=O)[C@H](Cc1ccccc1)NC(=O)[C@@H](CC(C)C)S[C@H]1CNC[C@H]1S (mixture of isomers)" system_name="72 kDa type IV collagenase (Homo sapiens, UniProt P08253)" observed_value=6.70
molecule="Cl.NCCCCCC(=O)N1C[C@H](NS(=O)(=O)c2ccc(Oc3ccccc3)cc2)[C@@H](S)C1 (racemic)" system_name="72 kDa type IV collagenase (Homo sapiens, UniProt P08253)" observed_value=8.51

[I] CC(C)C[C@H](CC(=O)NO)C(=O)N[C@H](Cc1ccc2ccccc2c1)C(=O)NCCCN1CCOCC1
[II] O=C(NO)C1(S(=O)(=O)c2ccc(OCCCc3nnnn3-c3ccc(OC(F)(F)F)cc3)cc2)CCOCC1
[III] O=C(NO)[C@@H](NCC1CC1)[C@@H](Cc1cccc(O)c1)C(=O)N[C@H]1c2ccccc2C[C@H]1O
[IV] NC(=O)[C@@H](Cc1c[nH]c2ccccc12)NC(=O)C(CCCc1ccccc1)CP(=O)(O)C(Cc1ccccc1)NC(=O)OCc1ccccc1 (stereo partly drawn)
Problem: List from greatest to least pKi. // list labels; follow requested order
Result: I, IV, II, III

====

// read-out Ki, gathered for 72 kDa type IV collagenase (Homo sapiens, UniProt P08253) from published studies
reported.endpoint: Ki (nM)

compound=COc1ccc(C[C@H](CC(=O)NO)C(=O)N[C@H]2c3ccccc3C[C@H]2O)cc1 system_name="72 kDa type IV collagenase (Homo sapiens, UniProt P08253)" reported_endpoint=Ki observed_value=52

[A] COc1cc(COc2ccc3c(c2)NCCN([C@H](CCCCN)C(=O)NO)S3(=O)=O)cc(OC)c1
[B] NCCCCCC(=O)N1C[C@H](NS(=O)(=O)c2ccc(Oc3ccccc3)cc2)[C@@H](O)C1 (racemic)
[C] CC(C)C[C@H](CC(=O)NO)C(=O)N[C@H](Cc1ccc(-c2ccccc2)cc1)C(=O)NCCc1ccc(O)cc1
Problem: List from greatest to least Ki. // list labels; follow requested order
Result: B, A, C
(B: 7000 nM, A: 231 nM, C: 8.1 nM)

====

// read-out Ki, gathered for 72 kDa type IV collagenase (Homo sapiens, UniProt P08253) from published studies
reported.endpoint: Ki (nM)

[1] CNC(=O)[C@H](Cc1ccc(OC)cc1)NS(=O)(=O)C(CCc1ccccc1)CC(=O)O (stereo partly drawn)
[2] COc1ccc(S(=O)(=O)C(CCCCc2ccccc2)CC(=O)NO)cc1 (stereo not drawn)
Problem: Which record shows the lower Ki: the first, 1 , or the second, 2 ? Please respond with the label that marks your chosen entry.
Result: 2

[A] CC(C)C[C@H](CC(=O)NO)C(=O)N[C@H](Cc1ccc2ccccc2c1)C(=O)NCCc1ccc(O)cc1
[B] O=C(N[C@@H](CC1CCCCC1)C(=O)NCCc1ccccc1)[C@H](CCCc1ccccc1)CP(=O)(O)O
Problem: Quick check, higher Ki between A and B ? Please respond with the label that marks your chosen entry.
Result: B
(B: 18.9 nM, A: 8.1 nM)
